Data origin, for the record: PubChem BioAssay AID2314

Assay: Cycloheximide Counterscreen for Small Molecule Inhibitors of Shiga Toxin; further: read at 38.3 µM for the half of the compounds with a filed dose; 0% is about no effect
Details: cell reporter, cycloheximide protein synthesis inhibition counterscreen; active compounds read high
Screen size: about 300,000 compounds; about 37,000 (12%) were called active. The list comes from a sample in which actives are over-represented; it also holds close analogues and randomly drawn compounds.
METRIC_NAME: max response (%)
Give bare numbers, in %.

INSERT INTO results (compound, result_value) VALUES
  ('COc1ccc(CCNC(=O)CN2C(=O)COc3ccc(S(=O)(=O)N4CCCC4)cc32)cc1OC', -2.34);

Record max response for all entries; do not skip any.
1. Cc1sc(NC(=S)NC(=O)c2cccs2)nc1-c1ccc(CC(C)C)cc1
2. CN(C)C(=O)CCC(=O)N1CCCCC1C(=O)Nc1ccc(Oc2ccccc2F)cc1 (stereo unspecified)
3. Cn1cc([N+](=O)[O-])c(C(=O)Nc2cnn(Cc3ccc(F)cc3)c2)n1
4. Cc1cc(C(F)(F)F)n2ncc(-c3ccccc3)c2n1

[9.37, -1.6, 9.36, 6.21]

Record max response for all entries; do not skip any.
1. Cc1cc(S(=O)(=O)NCc2ccccn2)c(Cl)cc1Cl
2. Cc1nn(CC(=O)Nc2ccc3c(c2)OCO3)c(C)c1[N+](=O)[O-]
3. COc1ccccc1NC(=O)C1CCCN(c2cc(C)nc3ncnn23)C1 (stereo unspecified)

-3.82
0.353
-3.74

Record max response for all entries; do not skip any.
1. Cc1nc(C)c(C(=O)Nc2cccc(C)c2C)o1
2. CCOC(=O)CN(C)Cc1c[nH]c2ccccc12
3. Cc1onc(C(=O)Nc2ccc3c(c2)OCO3)c1[N+](=O)[O-]

1: -2.15; 2: 0.657; 3: 30.6
